Assay info: Plasma toxicokinetics of free TBBPA after oral or IV administration
Type: in vivo, female Crl:WI(Han) rats
Experimental context: female, Crl:WI(Han), rat, plasma, iv, 25 mg/kg, distribution half-life, IV 25 mg/kg, two-compartment model
Experimental endpoint: half-life (min)
Answer in min, number only, no unit symbol.

half-life for CC(C)(c1cc(Br)c(O)c(Br)c1)c1cc(Br)c(O)c(Br)c1 [TBBPA] ?
2

====

Assay info: Plasma toxicokinetics of free TBBPA after oral or IV administration
Format: in vivo, female Crl:WI(Han) rats
Experimental context: female, Crl:WI(Han), rat, plasma, po, 250 mg/kg
Experimental endpoint: Cmax
The number alone won't do; follow it with the unit.

Would you kindly share the measured Cmax for CC(C)(c1cc(Br)c(O)c(Br)c1)c1cc(Br)c(O)c(Br)c1 ?
5.4 µM

====

Assay info: Plasma toxicokinetics of free TBBPA after oral or IV administration
Format: in vivo, female Crl:WI(Han) rats
Experimental context: female, Crl:WI(Han), rat, plasma, iv, 25 mg/kg, terminal half-life, IV 25 mg/kg, non-compartmental analyses
Experimental endpoint: half-life (h)
Return type: number; implicit unit h.

What value of measured half-life is listed for CC(C)(c1cc(Br)c(O)c(Br)c1)c1cc(Br)c(O)c(Br)c1 ?
2.22

====

Assay info: Plasma toxicokinetics of free TBBPA after oral or IV administration
Assay type: in vivo, female Crl:WI(Han) rats
Experimental context: female, Crl:WI(Han), rat, plasma, iv, 25 mg/kg, terminal half-life, IV 25 mg/kg, two-compartment model
Experimental endpoint: half-life (min)
Give the value, in units of min, as a plain number.

Need half-life, item CC(C)(c1cc(Br)c(O)c(Br)c1)c1cc(Br)c(O)c(Br)c1 [TBBPA]
22
